This listing pairs compounds with measured EC50.
subject.of.test: TYK2 (Homo sapiens (Human), UniProt P29597)
Sequence (P29597 871-1187): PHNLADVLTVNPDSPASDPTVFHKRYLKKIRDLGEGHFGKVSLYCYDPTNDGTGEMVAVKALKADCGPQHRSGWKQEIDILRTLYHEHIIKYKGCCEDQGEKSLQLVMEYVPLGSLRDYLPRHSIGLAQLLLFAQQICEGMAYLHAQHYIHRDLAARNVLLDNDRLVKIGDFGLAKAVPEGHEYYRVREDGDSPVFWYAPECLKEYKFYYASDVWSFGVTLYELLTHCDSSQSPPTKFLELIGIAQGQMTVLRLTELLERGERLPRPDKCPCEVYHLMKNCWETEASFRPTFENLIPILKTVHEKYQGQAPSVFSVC
assay.remarks: JAK kinase assay (HTRF), TYK2
recorded.conditions: catalytic domain, ATP at Km (13 μM)
endpoint.name: EC50 (nM)

compound: O=C(NCC1(CO)CC(F)(F)C1)C1CCN(c2ncnc3[nH]ccc23)CC12CC2 (centres unmarked)
unit.of.measure: nM
endpoint.value: 71.8
//
compound: O=C(NC[C@@H](O)c1ccccc1)C1CCN(c2ncnc3[nH]ccc23)CC12CC2 (some centres unmarked)
unit.of.measure: nM
endpoint.value: 147
//
compound: COc1cc(C#N)ccc1CNC(=O)[C@H]1CCN(c2ncnc3[nH]ccc23)CC12CC2
unit.of.measure: nM
endpoint.value: 121
//
compound: NS(=O)(=O)c1cccc(CNC(=O)C2CCN(c3ncnc4[nH]ccc34)CC23CC3)c1 (centres unmarked)
unit.of.measure: nM
endpoint.value: 141
//
compound: O=C(N[C@H](CO)C(=O)OCC1CC1)[C@H]1CCN(c2ncnc3[nH]ccc23)CC12CC2
unit.of.measure: nM
endpoint.value: 163
